- STUDY_TARGET: LILRB5 (human (not printed on the sheet), UniProt O75023)
- Sequence (O75023 24-458 limits assumed): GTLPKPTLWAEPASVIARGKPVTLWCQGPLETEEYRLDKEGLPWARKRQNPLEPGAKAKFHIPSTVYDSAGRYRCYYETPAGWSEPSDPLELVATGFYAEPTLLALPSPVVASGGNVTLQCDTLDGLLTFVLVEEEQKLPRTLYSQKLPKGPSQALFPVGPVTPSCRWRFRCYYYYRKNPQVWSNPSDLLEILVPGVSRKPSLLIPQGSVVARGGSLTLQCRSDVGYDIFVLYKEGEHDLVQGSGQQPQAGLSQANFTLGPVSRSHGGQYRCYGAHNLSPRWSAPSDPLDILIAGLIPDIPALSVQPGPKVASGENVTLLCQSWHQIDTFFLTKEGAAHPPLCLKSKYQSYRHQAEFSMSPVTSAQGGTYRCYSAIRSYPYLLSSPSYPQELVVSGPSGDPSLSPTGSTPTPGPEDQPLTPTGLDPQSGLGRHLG
- PROTOCOL_NOTES: LILR reporter cells on coated antibody, GFP positive (%)
READOUT_LABEL: binding result

1. h193 antibody No. 37 (h193-H7 / h193-K3) (antibody, V domains shown) VH: EVQLVESGGGLVQPGGSLRLSCAASGFSLSSSYWISWVRQAPGKGLEWIGSIDSGSVGITYYATWVKGRFTISRDNSKNTLYLQMNSLRAEDTAVYYCARHGDNWALDLWGQGTLVTVSS VL: DIQMTQSPSTLSASVGDRVTITCRASQSINSWLAWYQQKPGKAPKLLIYKASTLASGVPSRFSGSGSGTEFTLTISSLQPDDFATYYCQHGYIRGDLDNVFGGGTKVEIK; no binding
2. h193 antibody No. 28 (h193-H5 / h193-K2) (antibody, V domains shown) VH: EVQLVESGGGLVQPGGSLRLSCAASGFSLSSSYWISWVRQAPGKGLEWIGVIDSGSVGITYYATWAKGRFTISRDNSKNTLYLQMNSLRAEDTAVYYCARHGDNWALDLWGQGTLVTVSS VL: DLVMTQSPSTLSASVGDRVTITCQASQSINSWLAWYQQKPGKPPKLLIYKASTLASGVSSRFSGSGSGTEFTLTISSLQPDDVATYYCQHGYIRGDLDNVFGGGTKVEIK; no binding
3. h193 antibody No. 19 (h193-H3 / h193-K1) (antibody, V domains shown) VH: EVQLVESGGGLVQPGGSLRLSCAASGFSLSSSYWISWVRQAPGKGLEWIGSIDSGSVGITYYATWAKGRFTISRDNSKNTLYLQMNSLRAEDTAVYYCARHGDNWALDLWGQGTLVTVSS VL: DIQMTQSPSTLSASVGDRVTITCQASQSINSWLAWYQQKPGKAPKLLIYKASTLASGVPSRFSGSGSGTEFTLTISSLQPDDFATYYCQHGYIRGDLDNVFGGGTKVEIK; no binding
4. h193 antibody No. 27 (h193-H5 / h193-K1) (antibody, V domains shown) VH: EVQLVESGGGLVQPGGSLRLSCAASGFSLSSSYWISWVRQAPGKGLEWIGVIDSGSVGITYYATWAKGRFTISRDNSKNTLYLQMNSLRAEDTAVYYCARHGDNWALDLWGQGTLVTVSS VL: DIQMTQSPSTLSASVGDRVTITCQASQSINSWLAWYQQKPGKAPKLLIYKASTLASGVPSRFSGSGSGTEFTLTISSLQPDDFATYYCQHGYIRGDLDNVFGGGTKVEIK; no binding
